Experiment: Clearance in iv dosed rat
Assay type: ADME, organism-based
Conditions: in vivo
Starred links: 1 amine or outer side, 2 acyl side, 3 side chain; linkers in the order of their positions; H or OH if unused. Non-standard residues stand in square brackets, D forms with d. Residues, ends and D or L forms follow the SMILES beside them. *: point of attachment. X6 = C[C@H](CO[C@H](CC1C[C@H]2CC[C@@H](C1)C2)[C@@H](C)C(=O)[*:2])N[*:1]; dAlaψ(CH2NBu)Nle = CCCC[C@@H](C(=O)[*:2])N(CCCC)C[C@@H](C)N[*:1]; X3 = C[C@H](CO[C@H](CC1CC2(CCC2)C1)[C@@H](C)C(=O)[*:2])N[*:1]; Cyclobutyl(trans-3-NH2) = N[C@H]1C[C@H](*)C1; X4 = CCCCCCN(CCN[*:1])[C@@H](C)C(=O)[*:2]; Gly(cHept) = N[C@H](C(=O)O)C1CCCCCC1; aThr = C[C@H](O)[C@H](N)C(=O)O; NMeL = CN[C@@H](CC(C)C)C(=O)O; Chg = N[C@H](C(=O)O)C1CCCCC1; NMeNva = CCC[C@H](NC)C(=O)O; Dap = NC[C@H](N)C(=O)O
The following compounds are shown together with reported clearance values.
Dear colleague, please return just the value in mL/min/kg, with no unit written.

Lab note: measured clearance of CCCCCCN1CCNC(=O)[C@H](CO[C@H]2C[C@H](N)C2)NC(=O)[C@H](CN)NC(=O)[C@H](C2CCCCC2)NC(=O)[C@H](CC(C)C)N(C)C(=O)[C@@H]1C (cyclo([Chg][Dap]S(Cyclobutyl(trans-3-NH2))[X4][NMeL])) was 8.7

Lab note: measured clearance of CCCC[C@H]1C(=O)N(C)[C@@H](CCC)C(=O)N[C@@H](C2CCCCC2)C(=O)N[C@@H](CN)C(=O)N[C@@H](CO[C@H]2C[C@H](N)C2)C(=O)N[C@H](C)CN1CCCC (cyclo([Chg][Dap]S(Cyclobutyl(trans-3-NH2))[dAlaψ(CH2NBu)Nle][NMeNva])) was 24

Lab note: measured clearance of CCCC[C@H]1C(=O)N(C)[C@@H](CC(C)C)C(=O)N[C@@H](C2CCCCC2)C(=O)N[C@@H](CN)C(=O)N[C@@H]([C@H](C)O)C(=O)N[C@H](C)CN1CCCC (cyclo([Chg][Dap][aThr][dAlaψ(CH2NBu)Nle][NMeL])) was 53

Lab note: measured clearance of CCC[C@H]1C(=O)N[C@@H](C2CCCCCC2)C(=O)N[C@@H](CN)C(=O)N[C@@H](CO[C@H]2C[C@H](N)C2)C(=O)N[C@H](C)CO[C@H](CC2CC3(CCC3)C2)[C@@H](C)C(=O)N1C (cyclo([Dap]S(Cyclobutyl(trans-3-NH2))[X3][NMeNva][Gly(cHept)])) was 40

Lab note: measured clearance of CCC[C@H]1C(=O)N[C@@H](C2CCCCCC2)C(=O)N[C@@H](CN)C(=O)N[C@@H](CO[C@H]2C[C@H](N)C2)C(=O)N[C@H](C)CO[C@H](CC2C[C@H]3CC[C@@H](C2)C3)[C@@H](C)C(=O)N1C (stereo partly drawn) (cyclo([Dap]S(Cyclobutyl(trans-3-NH2))[X6][NMeNva][Gly(cHept)])) was 15
